biological target: T1, human transferrin receptor (hTfR) (human, UniProt P02786 89-760); experiment: SPR, KD at pH 6.0 over KD at pH 7.4
T1 construct: Recombinant hTfR; at pH 7.4 captured on the chip by an anti-His tag antibody, at pH 6.0 immobilized on an NTA chip, so it carries a His tag; also called human TfR; TfR1
T1 sequence (P02786 89-760 limits assumed): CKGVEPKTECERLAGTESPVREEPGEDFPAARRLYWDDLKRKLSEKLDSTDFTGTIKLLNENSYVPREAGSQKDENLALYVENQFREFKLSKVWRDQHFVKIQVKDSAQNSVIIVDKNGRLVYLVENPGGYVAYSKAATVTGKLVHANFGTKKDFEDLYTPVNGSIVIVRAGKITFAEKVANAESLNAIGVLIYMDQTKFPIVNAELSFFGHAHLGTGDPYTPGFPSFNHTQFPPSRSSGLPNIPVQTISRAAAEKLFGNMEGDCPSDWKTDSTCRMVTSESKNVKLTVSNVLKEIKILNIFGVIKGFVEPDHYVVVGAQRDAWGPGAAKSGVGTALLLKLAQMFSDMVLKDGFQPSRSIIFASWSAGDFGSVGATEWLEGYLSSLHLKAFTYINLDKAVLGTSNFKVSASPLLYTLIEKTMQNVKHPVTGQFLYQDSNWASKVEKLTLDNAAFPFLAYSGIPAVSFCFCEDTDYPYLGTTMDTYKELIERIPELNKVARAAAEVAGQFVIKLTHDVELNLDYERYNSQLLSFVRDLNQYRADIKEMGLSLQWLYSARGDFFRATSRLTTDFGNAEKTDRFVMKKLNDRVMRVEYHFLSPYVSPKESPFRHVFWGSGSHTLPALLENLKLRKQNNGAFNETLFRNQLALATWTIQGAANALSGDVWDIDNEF
Bridge positions count the residues as written; N and C are the ends. Square brackets hold non-standard residues; d marks the D form. Ends that are not written are not given here. NMePhe(4-COOH) = CN[C@@H](Cc1ccc(C(=O)O)cc1)C(=O)O; 3Pal(6-NH2) = Nc1ccc(C[C@H](N)C(=O)O)cn1; NMeW = CN[C@@H](Cc1c[nH]c2ccccc12)C(=O)O; NMeF = CN[C@@H](Cc1ccccc1)C(=O)O
Known dependency KD pH6.0/7.4 of a selection of binders

# Binder, dependency KD pH6.0/7.4
records = [
    ("{CH2CO}-AV[NMeF]V[NMeW]N[3Pal(6-NH2)]YIIKRY[NMePhe(4-COOH)]C (thioether N-15; not fully specified (C-terminus)) [894_0604]", 4.76),
    ("{CH2CO}-AV[NMeF]VWN[3Pal(6-NH2)]YIIKRY[NMePhe(4-COOH)]C (thioether N-15; not fully specified (C-terminus)) [894_0603]", 4.79),
]
